# System: CSF1R
# assay.conditions: Compound Concentration (nM):1000;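 also: KINOMEscan scanMAX binding as percent activity remaining versus control; lower means stronger binding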
parameter.measured: Percent Control (%)

• CCc1ccc(Oc2nccc(-c3c(-c4ccc(F)cc4)ncn3C3CCNCC3)n2)cc1 = 100
• COc1cc(C=NNc2ncnc3c2cnn3-c2ccccc2)ccc1O [GW513184X] = 100
• Cl.O=S1CCN(Cc2ccc(-c3ccc4ncnc(Nc5ccc(OCc6ccccc6)c(F)c5)c4c3)o2)CC1 [GW576924A] = 100
• Cl.O=C(Nc1ccc(Oc2ccc3[nH]c(NC(=O)c4ccccc4)nc3c2)cc1)Nc1cc(C(F)(F)F)ccc1F [GW709042A] = 6.1
• Cl.c1ccc(Cc2nc3ccc(Nc4ncnc5ccccc45)cc3[nH]2)cc1 [GR269666A] = 100
• COc1cc(N2CCN(C(C)C)CC2)ccc1Nc1nc(Nc2ccc(F)cc2C(=O)NC[C@@H](O)CO)c2cc[nH]c2n1 [GSK1392956A] = 100
• CCS(=O)(=O)c1ccc(OC)c(Nc2ncc(-c3cccc(OC)c3)o2)c1 [GW580509X] = 72
• COC(=O)Nc1nc2ccc(Oc3ccc(NC(=O)Nc4cc(C(F)(F)F)ccc4F)cc3)cc2s1.Cl [GW693917A] = 2.3

* * *

# Test system: DAPK1
# assay.conditions: Compound Concentration (nM):1000
Below, each of the compounds is paired with its reported Percent Control value.
parameter.measured: Percent Control

* CCn1c(-c2nonc2N)nc2c(C#CC(C)(C)O)nc(OCCNC)cc21.Cl | 100%
* C[C@@H](Oc1cc(-n2cnc3ccc(OC4CCN(C)CC4)cc32)sc1C(N)=O)c1ccccc1Cl [GSK579289A] | 29%
* NS(=O)(=O)c1ccc(N/N=C2\C(=O)Nc3ccc(C(=O)NCCc4c[nH]cn4)cc32)cc1 [GW300660X] | 44%
* Cl.O=C(Nc1ccc(Oc2ccc3[nH]c(NC(=O)c4ccccc4)nc3c2)cc1)Nc1cc(C(F)(F)F)ccc1F [GW709042A] | 100%
* COc1ccc2c(-c3ccnc(Nc4cccc(OC(F)(F)F)c4)n3)cnn2n1 [GW810372X] | 100%
* Cl.O=S1CCN(Cc2ccc(-c3ccc4ncnc(Nc5ccc(OCc6ccccc6)c(F)c5)c4c3)o2)CC1 [GW576924A] | 100%
* COC(=O)Nc1nc2ccc(Oc3ccc(NC(=O)Nc4cc(C(F)(F)F)ccc4F)cc3)cc2s1.Cl [GW693917A] | 95%
* Cl.O=C(Nc1ccc(Oc2ccc3[nH]c(NC(=O)c4ccco4)nc3c2)cc1)Nc1cc(C(F)(F)F)ccc1F [GW683134A] | 100%
* COc1ccccc1-c1cc(/C=C2\C(=O)Nc3ncc(Br)cc32)cc(Br)c1O [GW442130X] | 100%
* COc1cccc(-c2c[nH]c3c(N/N=C/c4ccncc4)ncnc23)c1 [GW814408X] | 100%

* * *

# Test system: TGFBR2
# assay.conditions: Compound Concentration (nM):1000
Below, each of the compounds is paired with its reported Percent Control value.
parameter.measured: Percent Control (%)

* NS(=O)(=O)c1ccc(N/N=C2\C(=O)Nc3ccc(Cl)cc32)cc1 [GW280670X] | 100
* Cl.O=S1CCN(Cc2ccc(-c3ccc4ncnc(Nc5ccc(OCc6ccccc6)c(F)c5)c4c3)o2)CC1 [GW576924A] | 100
* CCS(=O)(=O)c1ccc(OC)c(Nc2ncc(-c3cccc(F)c3)o2)c1 [GW621970X] | 52
* Nc1ncnc2occ(-c3ccc(NC(=O)Nc4cc(C(F)(F)F)ccc4F)cc3)c12 [GW770249X] | 100
* Cc1cc(O)cc(C)c1/C=C/c1cncc(C(N)=O)c1 [GW435821X] | 81
* O=C(Nc1n[nH]c2nc(-c3ccc(O)cc3)c(Br)cc12)C1CC1 | 100
* CCn1c(-c2nonc2N)nc2c(C#CC(C)(C)O)nc(OCCNC)cc21.Cl | 100
* COC(=O)Nc1nc2ccc(Oc3ccc(NC(=O)Nc4cc(C(F)(F)F)ccc4F)cc3)cc2s1.Cl [GW693917A] | 92
* NS(=O)(=O)c1ccc(N/N=C2\C(=O)Nc3ccc(C(=O)NCc4ccncc4)cc32)cc1 [GW300657X] | 100
* CN(C)CCNC(=O)Nc1ccc(N(C)c2ccnc(Nc3ccc(CS(C)(=O)=O)cc3)n2)cc1.Cl [GW830900A] | 75
* CCc1ccc(Oc2nccc(-c3c(-c4ccc(F)cc4)ncn3C3CCNCC3)n2)cc1 | 100

Source of measurements: paper PMC7826789
